Source listed as PubChem BioAssay (NCI).

system: PC-3 prostate; test: NCI tumour cell line growth inhibition, 384-well format; in the data active = GI50 below about 0.43 µM; inactive = the rest
Would you mind answering with one of these outcomes? active, inactive

[[record]]
compound = "NC1(c2ccc(-c3nc4ccn5c(=O)[nH]nc5c4cc3-c3ccccc3)cc2)CCC1"
target_or_system = "PC-3 prostate"
category_label = "active"

[[record]]
compound = "CNC[C@@H](NC(=O)c1ccc(-c2nc([C@H]3CC[C@H](O)[C@@H](F)C3)cnc2N)cc1F)c1cc(F)cc(Br)c1"
target_or_system = "PC-3 prostate"
category_label = "inactive"


**Q:** Test call, this compound: Cc1cc(-c2ccc(C3C(C#N)=C(N)Oc4c3c(=O)oc3ccccc43)cc2)cnc1F (centres undefined)
**A:** inactive

**Q:** Record lookup: outcome of this test for Cc1cnc(NC2CCOCC2)nc1-n1cnc(C(=O)N[C@H](CN)c2cc(F)cc(Cl)c2)c1 ?
**A:** inactive
